system: SK-OV-3; experiment: NCI tumour cell line growth inhibition, 48 h
The source made the active and inactive calls. No stated cut-off is given here; in the data, active = GI50 up to about 1.1 µM and inactive = higher.
Provide the reported GI50 of each item.

Challenge: I have this compound here, O=C1c2ccccc2C(=O)N1CCSCC(CO)SCCN1C(=O)c2ccccc2C1=O (stereo not given) , and I need its recorded GI50.
Response given: > 100 µM (inactive)

Challenge: What value of measured GI50 is listed for "CCOC(=O)NC(=O)c1cn(CCSCCOC(=O)NCCCCCCNC(=O)OCCSCCn2cc(C(=O)NC(=O)OCC)c(=O)n(C)c2=O)c(=O)n(C)c1=O" ?
Response given: 34.7 µM (inactive)

Challenge: Any idea what its GI50 is? The compound is "CCOC(=O)c1ccc(NCc2ccc3nc(OC)c(OC)nc3c2)cc1"
Response given: > 100 µM (inactive)

Challenge: GI50 for "O=C1Nc2ccccc2/C1=N/NC(=S)Nc1ccc(Cl)cc1" ?
Response given: 38.5 µM (inactive)

Challenge: Bench note: what GI50 did CC(C)(C)/N=C1\C(=O)C2(C)CCC1C2(C)C (stereo not given) show?
Response given: > 100 µM (inactive)

Challenge: Quick one: GI50 for CCOC(=O)C(NC(=O)CC)(Nc1ccc(S(=O)(=O)Nc2onc(C)c2C)cc1)C(F)(F)F (stereo not given) ?
Response given: > 100 µM (inactive)

Challenge: Need GI50, item "Cc1ccc(S(=O)(=O)c2c(N)c3nccn3c3nc4ccccc4nc23)cc1"
Response given: > 100 µM (inactive)

Challenge: Can you look up the measured GI50 of "O=c1c2ccccc2nc(-c2ccccc2)n1/N=C/c1ccccc1[N+](=O)[O-]" for me?
Response given: 19.6 µM (inactive)

Challenge: What value of GI50 has been recorded for this entry: "CCOC(=O)c1c(Nc2ccccc2)sc2cccnc12"
Response given: 36 µM (inactive)

Challenge: So what's the measured GI50 for this one? "C[N+](C)(CCNC(=O)c1cccc2cc3ccccc3nc12)Cc1ccc([N+](=O)[O-])s1"
Response given: > 25 µM (inactive)

---

system: SK-OV-3; experiment: NCI tumour cell line growth inhibition, 48 h
Active and inactive are the calls of the source. Rule as the data show it: active = GI50 up to about 1.1 µM and inactive = higher.
measured_metric: GI50

Challenge: GET /values?readout=GI50&item= "COC(=O)CC(=O)C[P+](c1ccccc1)(c1ccccc1)c1ccccc1"
Response given: > 218 µM (inactive)

Challenge: Which GI50 is listed for "CC1(c2cc3c(cc2Br)OCO3)SCCCS1" ?
Response given: > 100 µM (inactive)

Challenge: State the recorded GI50 for this entry: "CN(C)CCCN1c2ccc([N+](=O)[O-])cc2CCc2cc([N+](=O)[O-])ccc21"
Response given: 14.9 µM (inactive)

Challenge: # lookup: GI50 of "COc1cc2cc3c4c(cc(OC)c(OC)c4c2cc1OC)CCN3C(=O)CCC(=O)O"
Response given: > 100 µM (inactive)

Challenge: Can you share its GI50? I mean this compound: "Cc1nc2c(o1)/C(=N\c1ccccc1)c1ccccc1/C2=N/c1ccccc1"
Response given: > 100 µM (inactive)

Challenge: Can you share its GI50? I mean this compound: "Cc1ccc(C(=O)/C(C#N)=C/Nc2c(C)n(C)n(-c3ccccc3)c2=O)cc1"
Response given: > 100 µM (inactive)

Challenge: Requested field: GI50. Item: CCOC(=O)N1CCC(=C2c3ccc(Cl)cc3CCc3cccnc32)CC1 [LORATADINE]
Response given: 15.5 µM (inactive)

Challenge: Suppose we examine the compound "CS(=O)(=O)c1nc(-c2cc3c(c(S(C)(=O)=O)n2)CCCC3)cc2c1CCCCC2" ; what GI50 value has been reported?
Response given: 72.4 µM (inactive)

Challenge: Record request: GI50 value, item "O=C(/C=C\c1cccc2ccccc12)c1cccs1"
Response given: 15.5 µM (inactive)

Challenge: Which GI50 value is on record for "O=C1c2ccccc2-c2c1c(-c1cccc(Br)c1)nc1ccc3ccccc3c21" ?
Response given: > 100 µM (inactive)

---

test system: MCF7; test: NCI tumour cell line growth inhibition, 48 h
Active and inactive are the calls of the source. Cut-off read from the data, not from the text of the source: active = GI50 up to about 1.1 µM and inactive = higher.
Consider the following molecules; for each one, report its GI50.

Challenge: What value of GI50 has been recorded for this entry: CC(C)(C)/N=C1\C(=O)C2(C)CCC1C2(C)C (stereo unspecified)
Response given: 16.8 µM (inactive)

Challenge: Give its GI50 value. Item: "CC(C)=CCNc1ncnc2c1ncn2CCC#N"
Response given: > 100 µM (inactive)

Challenge: Record request: GI50 value, item "COc1ccc(-c2nc(SCC(=O)N/N=C/c3ccc(O)c(OC)c3)[nH]c2-c2ccc(OC)cc2)cc1"
Response given: 17.9 µM (inactive)

Challenge: Need GI50, item "NS(=O)(=O)c1ccc(/C=C/c2ccc(O)cc2)cc1"
Response given: 17.5 µM (inactive)

Challenge: Tell me the measured GI50 of "CC(C)(C)/N=c1/n(C(C)(C)C)oc(=O)n1-c1ccccc1" , please.
Response given: > 50 µM (inactive)

Challenge: Query: GI50; subject: Cc1ccc(C(=O)O)c(CC2Cc3c(C)cccc3C2=O)c1 (stereo unspecified)
Response given: > 100 µM (inactive)

---

system: EKVX; assay: NCI tumour cell line growth inhibition, 48 h
Active and inactive are the calls of the source. Cut-off read from the data, not from the text of the source: active = GI50 up to about 1.1 µM and inactive = higher.
Exercise: for every item that follows, state its recorded GI50.

Challenge: What does the data say about its GI50? Entry: "O=C(NCCCNCCN1C(=O)c2cccc3cc([N+](=O)[O-])cc(c23)C1=O)c1cc(-c2ccccc2)nc2ccccc12"
Response given: 7.52 µM (inactive)

Challenge: Which GI50 value belongs to C=C1CC(COc2ccc3c(C)c(Cl)c(=O)oc3c2)(c2ccccc2)OC1=O (configuration not stated) ?
Response given: 10.5 µM (inactive)

Challenge: What does the data say about its GI50? Entry: "CO/N=C(\C)CCC#Cc1ccccc1C(=O)OC"
Response given: > 10 µM (inactive)

Challenge: # input molecule: O=C(c1ccccc1)C1C[C@H]2CO[C@H](c3ccccc3)N2C1=O (some centres not stated) ; wanted: its GI50
Response given: > 100 µM (inactive)

Challenge: For the molecule "CCOC(=O)NN1C(=O)C(=P(c2ccccc2)(c2ccccc2)c2ccccc2)C(C(=O)OCC)=C1C" , what GI50 is on record?
Response given: > 100 µM (inactive)

Challenge: Value lookup for GI50; key = "C=CCNC(=S)N/C=C(/C(C)=O)C(=O)Nc1ccccc1C"
Response given: > 100 µM (inactive)

Challenge: Need GI50, item "CC1=C[C@@H]2Cc3occc3C(C)(C)[C@@H]2CC1"
Response given: 18 µM (inactive)

Challenge: Look up GI50: "Cc1cc(-c2cscn2)c(O)c([N+](=O)[O-])c1"
Response given: 65.8 µM (inactive)

Challenge: Param item = "COc1ccc2[nH]cc(CCNC(=O)[C@H](Cc3ccccc3)NC(=O)[C@@H](NCC(F)(F)F)C(C)C)c2c1" ; retrieve measured GI50.
Response given: 17.4 µM (inactive)

Challenge: Requested field: GI50. Item: "O=C1N[C@@H]2c3c(csc3Br)C(=O)[C@@H]2O1"
Response given: 30.4 µM (inactive)

Challenge: Given the molecule "Cc1cn(CCCCCCC2=NCCCN2)c(=O)[nH]c1=O" , what is its reported GI50?
Response given: > 100 µM (inactive)

Challenge: Find the recorded GI50 belonging to COc1c2c(c3c(c1C1OC(C)[C@@H](C)O1)CC(C)(C)O3)C(=O)c1ccccc1C2=O (some centres not stated) and report it.
Response given: > 100 µM (inactive)

Challenge: # get_value(readout='GI50', item= CCOC(=O)C(NC(=O)CC)(Nc1ccc(S(=O)(=O)Nc2onc(C)c2C)cc1)C(F)(F)F (configuration not stated) )
Response given: > 100 µM (inactive)

Challenge: # GI50 lookup, item "O=C1OC(c2ccccc2)=N/C1=C/c1cccs1"
Response given: > 100 µM (inactive)

Challenge: Bench note: what GI50 did CSc1nc2c(nc(N)n2C2OCC(O)C(O)C2O)c(=O)n1C (configuration not stated) show?
Response given: > 100 µM (inactive)

Challenge: # get_value(readout='GI50', item= "O=C1NCC2(CCNCC2)N1c1ccccc1" )
Response given: > 100 µM (inactive)

Challenge: GET /values?readout=GI50&item= "O=C(NCCN1CCOCC1)c1cn2c(ccc3sc4ccccc4c(=O)c32)n1"
Response given: > 100 µM (inactive)

---

tested on: NCI/ADR-RES; assay: NCI tumour cell line growth inhibition, 48 h
Calls of active or inactive are those of the source. Rule as the data show it: active = GI50 up to about 1.1 µM and inactive = higher.
measured_metric: GI50

Challenge: Please look up its GI50: "COc1ccc(-c2c(N)n(-c3cccc(C(=O)O)c3)c(=O)c3cc([N+](=O)[O-])ccc23)cc1"
Response given: > 100 µM (inactive)

Challenge: Requested read-out: GI50. Entry: "COC(=O)c1c2c(cc3c1CCC3)CCC2"
Response given: > 100 µM (inactive)

Challenge: Dear colleague, I am looking for the recorded GI50 of the following molecule: "O=C(O)c1ccc(C2=Nc3cccc4cccc(c34)N2)cc1"
Response given: > 100 µM (inactive)

Challenge: Which GI50 is reported for this molecule? "CCN(CC)CCOCCn1c2c(c3ccccc31)CCCC2"
Response given: 12.7 µM (inactive)

Challenge: Tell me the measured GI50 of "O=C(NNc1ccc([N+](=O)[O-])cc1[N+](=O)[O-])/C(O)=C\C(=O)c1ccccc1" , please.
Response given: 16.3 µM (inactive)
